- METHOD SUMMARY: Example 2 multi-dose study: pharmacokinetics
- Assay type: in vivo, human
- RUN CONDITIONS: both sexes, human, in vivo, oral, 3 mg, 3 mg once daily, Study Day 1, median
RECORDED METRIC: Tmax (h)
Return type: number; implicit unit h.

Entry O=C(Nc1nc(-c2cc(Cl)cs2)c(N2CCN(C3CCCCC3)CC2)s1)c1cnc(N2CCC(C(=O)O)CC2)c(Cl)c1 — recorded Tmax = 6

---

- METHOD SUMMARY: Example 2 multi-dose study: pharmacokinetics
- Assay type: in vivo, human
- RUN CONDITIONS: both sexes, human, in vivo; 20 mg once daily oral suspension, Study Day 1, mean; read-out: Cmax
RECORDED METRIC: Cmax
Answer format reminder: number followed by unit.

Looking up O=C(Nc1nc(-c2cc(Cl)cs2)c(N2CCN(C3CCCCC3)CC2)s1)c1cnc(N2CCC(C(=O)O)CC2)c(Cl)c1 , I see its Cmax listed as 121 ng/mL

---

- METHOD SUMMARY: Example 1 single dose study: pharmacokinetics
- Assay type: in vivo, human
- RUN CONDITIONS: both sexes, human, plasma, po, 20 mg, single oral dose 20 mg, healthy volunteers, preliminary mean; read-out: Cmax
RECORDED METRIC: Cmax (ng/mL)
Write the value in ng/mL as a bare number.

Record O=C(Nc1nc(-c2cc(Cl)cs2)c(N2CCN(C3CCCCC3)CC2)s1)c1cnc(N2CCC(C(=O)O)CC2)c(Cl)c1 , field Cmax: 146

---

- METHOD SUMMARY: Example 1 single dose study: pharmacokinetics
- Type: in vivo, human
- RUN CONDITIONS: both sexes, human, plasma; single oral dose 3 mg, healthy volunteers, preliminary mean
RECORDED METRIC: AUC

Lab note: O=C(Nc1nc(-c2cc(Cl)cs2)c(N2CCN(C3CCCCC3)CC2)s1)c1cnc(N2CCC(C(=O)O)CC2)c(Cl)c1 gave AUC of 477 ng·h/mL

---

- METHOD SUMMARY: Example 1 single dose study: pharmacokinetics
- Type: in vivo, human
- RUN CONDITIONS: both sexes, human, serum, po, 3 mg, single oral dose 3 mg, healthy volunteers, final mean; read-out: Cmax
RECORDED METRIC: Cmax (ng/mL)
Kindly provide the numeric value in ng/mL only, without the unit symbol.

Entry O=C(Nc1nc(-c2cc(Cl)cs2)c(N2CCN(C3CCCCC3)CC2)s1)c1cnc(N2CCC(C(=O)O)CC2)c(Cl)c1 [Formula I] ; Cmax = 17.1

---

- METHOD SUMMARY: Example 1 single dose study: pharmacokinetics
- Assay type: in vivo, human
- RUN CONDITIONS: both sexes, plasma, oral; single 75 mg daily dose, human; read-out: mean AUC0-last
RECORDED METRIC: AUC(0-t)

O=C(Nc1nc(-c2cc(Cl)cs2)c(N2CCN(C3CCCCC3)CC2)s1)c1cnc(N2CCC(C(=O)O)CC2)c(Cl)c1 has a reported AUC(0-t) of ~10800 ng·h/mL

---

- METHOD SUMMARY: Example 2 multi-dose study: pharmacokinetics
- Format: in vivo, human
- RUN CONDITIONS: both sexes, human, in vivo, oral; 3 mg once daily, Study Day 14, mean
RECORDED METRIC: AUC(0-inf)
Please don't drop the unit; write it after the number.

Value of measured AUC(0-inf) for the entry O=C(Nc1nc(-c2cc(Cl)cs2)c(N2CCN(C3CCCCC3)CC2)s1)c1cnc(N2CCC(C(=O)O)CC2)c(Cl)c1 : 804 ng·h/mL
